Could you please report measured IC50, IL-31-induced STAT3 phosphorylation in NHK, Exp 6 for the items listed next?
- Target Of Assay: T1, recombinant human IL-31 (as used in the NHK STAT3 phosphorylation assay of Example 5) (human, UniProt Q6EBC2 24-164, limits assumed)
- T1 sequence: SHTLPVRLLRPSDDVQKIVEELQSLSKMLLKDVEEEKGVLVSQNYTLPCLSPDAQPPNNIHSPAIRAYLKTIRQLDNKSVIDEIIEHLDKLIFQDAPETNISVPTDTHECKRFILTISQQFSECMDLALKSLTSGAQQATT
- Procedure Summary: cell-based or functional assay
One number for each entry, in nM.

>>> reported("humanized 292.12.3.1 construct clone 9 (12VH1-gly + HC(fback)) (antibody, human IgG4, V domains shown, also called 09) VH: QVQLVQSGAEVKKPGASVKVSCKASGYTLTRYWMQWVRQAPGQGLEWMGAIYPGDGDTRYSQKFQGRVTLTADKSISTAYMELSSLRSEDTAVYYCAFPDGYYAAPYGMDYWGQGTLVTVSS VL: DIQMTQSPSSLSASVGDRVTITCRASGNIHNYLAWYQQKPGKVPKLLIYNAKTLADGVPSRFSGSGSGTDFTLTISSLQPEDVATYYCQHFWSTPWTFGQGTKVEIKR")
3.25

Count: 5. Required value per item: IC50, IL-31-induced STAT3 phosphorylation in NHK, Exp 6.
1. humanized 292.12.3.1 construct clone 18 (12VH1-gly + HC(fback) + LC(G66R, G68E, F71Y)) (antibody, human IgG4, V domains shown) VH: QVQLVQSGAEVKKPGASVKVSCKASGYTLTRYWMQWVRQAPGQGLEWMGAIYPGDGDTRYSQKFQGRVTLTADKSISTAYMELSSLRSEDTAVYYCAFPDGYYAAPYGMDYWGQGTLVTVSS VL: DIQMTQSPSSLSASVGDRVTITCRASGNIHNYLAWYQQKPGKVPKLLIYNAKTLADGVPSRFSGSRSETDYTLTISSLQPEDVATYYCQHFWSTPWTFGQGTKVEIKR
2. humanized 292.12.3.1 construct clone 10 (12VH1-gly + LC(fback)) (antibody, human IgG4, V domains shown) VH: QVQLVQSGAEVKKPGASVKVSCKASGYTFTRYWMQWVRQAPGQGLEWMGAIYPGDGDTRYSQKFQGRVTMTRDTSISTVYMELSSLRSEDTAVYYCARPDGYYAAPYGMDYWGQGTLVTVSS VL: DIQMTQSPSSLSASVGDRVTITCRASGNIHNYLAWYQQKPGKVPKLLIYNAKTLADGVPSRFSGSRSETQYSLTISSLQPEDVATYYCQHFWSTPWTFGQGTKVEIKR
3. humanized 292.12.3.1 construct clone 14 (12VH1-gly + HC(M69L, R71A, T73K, V78A, R94F) + LC(fback)) (antibody, human IgG4, V domains shown) VH: QVQLVQSGAEVKKPGASVKVSCKASGYTFTRYWMQWVRQAPGQGLEWMGAIYPGDGDTRYSQKFQGRVTLTADKSISTAYMELSSLRSEDTAVYYCAFPDGYYAAPYGMDYWGQGTLVTVSS VL: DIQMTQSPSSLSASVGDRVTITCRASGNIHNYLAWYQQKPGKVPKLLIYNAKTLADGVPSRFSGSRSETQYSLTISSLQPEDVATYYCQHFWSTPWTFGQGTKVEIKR
4. humanized 292.12.3.1 construct clone 16 (12VH1-gly + HC(fback) + LC(G66R, G68E, D70Q, T72S)) (antibody, human IgG4, V domains shown) VH: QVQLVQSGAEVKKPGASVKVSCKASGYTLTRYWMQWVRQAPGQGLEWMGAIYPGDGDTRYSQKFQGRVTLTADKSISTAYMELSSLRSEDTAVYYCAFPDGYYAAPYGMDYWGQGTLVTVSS VL: DIQMTQSPSSLSASVGDRVTITCRASGNIHNYLAWYQQKPGKVPKLLIYNAKTLADGVPSRFSGSRSETQFSLTISSLQPEDVATYYCQHFWSTPWTFGQGTKVEIKR
5. humanized 292.12.3.1 construct clone 7 (12VH1-gly + fback) (antibody, human IgG4, V domains shown, also called 07) VH: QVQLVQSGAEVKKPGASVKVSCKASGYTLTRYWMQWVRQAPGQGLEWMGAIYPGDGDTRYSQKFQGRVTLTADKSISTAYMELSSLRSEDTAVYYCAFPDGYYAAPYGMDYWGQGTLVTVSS VL: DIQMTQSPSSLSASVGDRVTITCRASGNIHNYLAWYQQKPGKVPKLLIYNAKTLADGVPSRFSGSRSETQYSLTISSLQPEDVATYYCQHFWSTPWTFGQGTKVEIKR

Result:
2.6
68.8
71.9
3.84
3.99

Dear colleague, could you send me IC50, IL-31-induced STAT3 phosphorylation in NHK, Exp 6 for each of the items below? Thanks.
1. humanized 292.12.3.1 construct clone 17 (12VH1-gly + HC(fback) + LC(D70Q, F71Y, T72S)) (antibody, human IgG4, V domains shown) VH: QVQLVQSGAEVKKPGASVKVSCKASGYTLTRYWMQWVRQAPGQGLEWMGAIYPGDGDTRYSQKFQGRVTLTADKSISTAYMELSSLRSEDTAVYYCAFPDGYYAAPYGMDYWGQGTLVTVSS VL: DIQMTQSPSSLSASVGDRVTITCRASGNIHNYLAWYQQKPGKVPKLLIYNAKTLADGVPSRFSGSGSGTQYSLTISSLQPEDVATYYCQHFWSTPWTFGQGTKVEIKR
2. humanized 292.12.3.1 construct clone 13 (12VH1-gly + HC(F29L, M69L, R71A, T73K, V78A) + LC(fback)) (antibody, human IgG4, V domains shown) VH: QVQLVQSGAEVKKPGASVKVSCKASGYTLTRYWMQWVRQAPGQGLEWMGAIYPGDGDTRYSQKFQGRVTLTADKSISTAYMELSSLRSEDTAVYYCARPDGYYAAPYGMDYWGQGTLVTVSS VL: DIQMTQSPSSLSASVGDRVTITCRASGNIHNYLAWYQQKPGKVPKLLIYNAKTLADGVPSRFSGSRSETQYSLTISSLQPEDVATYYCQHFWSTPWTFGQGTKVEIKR

Result:
[6.65, 46.5]
